Values were extracted from patent US12077503B2.

Tested on: wheat (winter wheat, Triticum aestivum)
Assay: Test C preemergence
Type: in vivo
Details: 125 g ai/ha, scale 0 to 100, 0 no effect, 100 complete control
MEASURE: Plant response rating, Wheat
# respond with the number and nothing more

O=C1NCC(c2cccc(OC(F)(F)C(F)F)c2)C1C(=O)Nc1cccc(F)c1F (racemic)	10

// sample CN1CC(c2ccc(F)c(F)c2)C(C(=O)Nc2ccccc2C(F)(F)F)C1=O (centres unmarked) , its Plant response rating, Wheat was 35

Plant response rating, Wheat measured on CN1C[C@H](c2ccc(F)c(F)c2)[C@@H](C(=O)Nc2ccccc2F)C1=O = 50

What the record says about O=C1NCC(c2cccc(OC(F)F)c2)C1C(=O)Nc1ccc(F)cc1F (centres unmarked) : Plant response rating, Wheat is 25

Recorded result, CN1CC(c2cccc(OC(F)(F)C(F)F)c2)C(C(=O)Nc2ccc(F)c(F)c2F)C1=O (centres unmarked) , Plant response rating, Wheat: 70
